EXPERIMENTAL PROTOCOL: Single-dose pharmacokinetics of erlotinib in non-tumor bearing mice
Assay type: in vivo, female nu/nu athymic mice
ASSAY SETUP: female, nu/nu athymic, mouse, po; single 20 mg/kg by gavage, plasma
VALUE TYPE: AUC(0-t) (ng·h/mL)
Kindly provide the numeric value in ng·h/mL only, without the unit symbol.

Q) Tell me measured AUC(0-t) for `C#Cc1cccc(Nc2ncnc3cc(OCCOC)c(OCCOC)cc23)c1` please.
A) 33500

* * *

EXPERIMENTAL PROTOCOL: Chronic-dose plasma and tumor concentrations of erlotinib in tumor-bearing mice
Format: in vivo, nu/nu athymic mice
ASSAY SETUP: nu/nu athymic, mouse, plasma; 1 hour post dose; oral 6.3-150.0 mg/kg daily; highest value; read-out: Plasma concentration
VALUE TYPE: concentration at 1 h

Q) Tell me measured concentration at 1 h for `C#Cc1cccc(Nc2ncnc3cc(OCCOC)c(OCCOC)cc23)c1` please.
A) ≤ 16700 ng/mL

* * *

EXPERIMENTAL PROTOCOL: Chronic-dose plasma and tumor concentrations of erlotinib in tumor-bearing mice
Format: in vivo, nu/nu athymic mice
ASSAY SETUP: nu/nu athymic, mouse; H460a tumor, oral 150 mg/kg, 1 hour post dose; read-out: Mean tumor concentration
VALUE TYPE: concentration at 1 h

Q) Tell me measured concentration at 1 h for C#Cc1cccc(Nc2ncnc3cc(OCCOC)c(OCCOC)cc23)c1 [erlotinib] please.
A) 4800 ng/g
